// values below are reported IC50
target: Baculoviral IAP repeat-containing protein 2 (Homo sapiens) (UniProt Q13490); assay: Inhibition of human recombinant His-tagged cIAP1 protein BIR3 domain (250 to 350 amino acid residues) using biotinylated-Smac as substrate after overnight incubation by HTRF assay
Sequence (Q13490 whole entry, looked up, the tested form may be a part): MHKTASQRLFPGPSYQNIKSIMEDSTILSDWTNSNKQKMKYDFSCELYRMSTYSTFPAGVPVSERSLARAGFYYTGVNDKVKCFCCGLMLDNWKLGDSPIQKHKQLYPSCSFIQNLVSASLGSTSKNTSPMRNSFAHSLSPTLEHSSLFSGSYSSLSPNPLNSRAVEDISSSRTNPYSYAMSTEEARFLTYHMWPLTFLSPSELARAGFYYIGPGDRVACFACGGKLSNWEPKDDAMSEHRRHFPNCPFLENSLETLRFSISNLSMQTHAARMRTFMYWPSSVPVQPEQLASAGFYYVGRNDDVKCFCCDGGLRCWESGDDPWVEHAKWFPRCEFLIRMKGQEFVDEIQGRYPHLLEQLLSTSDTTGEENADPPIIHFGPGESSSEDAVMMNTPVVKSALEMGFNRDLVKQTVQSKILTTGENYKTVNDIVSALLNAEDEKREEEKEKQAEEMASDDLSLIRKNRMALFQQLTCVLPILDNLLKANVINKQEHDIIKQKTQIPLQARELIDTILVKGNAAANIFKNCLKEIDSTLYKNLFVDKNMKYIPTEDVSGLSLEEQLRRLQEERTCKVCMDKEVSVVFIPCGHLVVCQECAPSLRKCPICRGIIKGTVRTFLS
property: IC50 (nM)

CN[C@@H](C)C(=O)N[C@H](C(=O)N1C[C@H]2CCCN2C[C@H]1C(=O)N[C@H](C)c1ccccc1)C1CCCCC1 :: 14
CN[C@@H](C)C(=O)N[C@H](C(=O)N1C[C@@H]2CCCN2C[C@H]1C(=O)N[C@@H]1CCOc2ccccc21)C1CCC(F)(F)CC1 :: 2.5
CN[C@@H](C)C(=O)N[C@H](C(=O)N1C[C@H]2CCCN2C[C@H]1C(=O)N[C@@H]1CCOc2ccccc21)c1ccccc1 :: 2.6
CN[C@@H](C)C(=O)N[C@H](C(=O)N1C[C@H]2CCCN2C[C@H]1C(=O)N[C@@H]1CCC(=O)c2ccccc21)C1CCCCC1 :: 7.6
CN[C@@H](C)C(=O)N[C@H](C(=O)N1C[C@H]2CCCN2C[C@H]1C(=O)N[C@H]1CCCc2ccccc21)C1CCCCC1 :: 1300

* * *

molecular target: Baculoviral IAP repeat-containing protein 2 (Homo sapiens) (UniProt Q13490); assay: Inhibition of human recombinant His-tagged cIAP1 protein BIR3 domain (250 to 350 amino acid residues) using biotinylated-Smac as substrate after overnight incubation by HTRF assay
property: IC50 (nM)

CN[C@@H](C)C(=O)N[C@H](C(=O)N1C[C@H]2CCCN2C[C@H]1C(=O)N[C@@H]1CCOc2ccccc21)C1CCOCC1 :: 3.4
CN[C@@H](C)C(=O)N[C@H](C(=O)N1C[C@H]2C[C@@H](O)CN2C[C@H]1C(=O)N[C@@H]1CCOc2ccccc21)C1CCC(F)(F)CC1 :: 4.9
CN[C@@H](C)C(=O)N[C@H](C(=O)N1C[C@H]2CCCN2C[C@H]1C(=O)N[C@@H]1CCC(F)(F)c2ccccc21)C1CCCCC1 :: 4
CN[C@@H](C)C(=O)N[C@H](C(=O)N1C[C@H]2CCCN2C[C@H]1C(=O)N[C@@H]1CCCc2ccccc21)C1CCCCC1 :: 2.7
CN[C@@H](C)C(=O)N[C@H](C(=O)N1C[C@H]2CCCN2C[C@H]1C(=O)N[C@@H]1CCOc2ccccc21)C1CCC(F)(F)CC1 :: 3.2
CCO[C@@H]1C[C@@H]2CN(C(=O)[C@@H](NC(=O)[C@H](C)NC)C3CCC(F)(F)CC3)[C@H](C(=O)N[C@@H]3CCOc4ccccc43)CN2C1 :: 1.3
CN[C@@H](C)C(=O)N[C@H](C(=O)N1C[C@H]2CC(F)(F)CN2C[C@H]1C(=O)N[C@@H]1CCOc2ccccc21)C1CCC(F)(F)CC1 :: 1.7

Taken from BindingDB's records for doi:10.1021/jm301674z.
